Provenance of the data: paper PMC11868579

biological target: eIF4E:eIF4G interaction (Homo sapiens, UniProt P06730); test: Electro-chemiluminescent binding assay, eIF4E:eIF4G, SW620 cell lysates; assay type: biochemical; design: endogenous in cells; host or cells: SW620 cells (lysates); details: read-out: EC50, eIF4G binding to eIF4E; SW620 cell lysates, 30 min
Sequence (P06730 2-217 limits assumed): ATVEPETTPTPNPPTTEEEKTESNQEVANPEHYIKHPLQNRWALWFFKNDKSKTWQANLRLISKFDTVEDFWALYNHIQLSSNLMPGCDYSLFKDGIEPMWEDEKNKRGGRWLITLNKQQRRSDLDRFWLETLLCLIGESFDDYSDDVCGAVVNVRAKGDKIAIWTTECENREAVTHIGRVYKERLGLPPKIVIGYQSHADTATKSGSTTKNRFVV
pEC50: −log10 of the molar value.

{"columns": ["Smiles string", "pEC50"],
 "data": [
  ["CC[C@H](O[C@H](C)CO)c1ccc(-c2ccccc2F)cc1NCCO", 5.59]
]}
